System: PC-3 prostate
Assay: NCI-60 one-dose screen, 48 h (100 = growth as untreated, 0 = no growth, -100 = all killed)
Conditions: 10 µM unless noted
This is part of a sample that, as a whole, favours compounds with a hit. Of some 83,000 tested, about 20% had one in any assay. Calls of active or inactive are those of the source. Rule for the calls: active = growth percent below 10; inactive = the rest.

>  <compound>
COc1ccc(C2CC(c3cccc(OC)c3)=NN2C(=O)c2cc(OC)c(OC)c(OC)c2)cc1 (stereo not given)

>  <measured on>
PC-3 prostate

>  <growth>
25.7% (inactive)

$$$$
>  <compound>
C=C(C)[C@@H]1CC[C@]2(C)[C@H](CC=C3[C@@H]4CC(C)(C)CC[C@]4(C(N)=O)CC[C@]32C)[C@@]1(C)CCC#N

>  <measured on>
PC-3 prostate

>  <growth>
-0.165% (active)

$$$$
>  <compound>
COc1cc(C2CC(=O)Nc3c2c(C)nn3-c2nc3ccccc3[nH]2)c(OC)c(OC)c1OC (stereo not given)

>  <measured on>
PC-3 prostate

>  <growth>
51.9% (inactive)

$$$$
>  <compound>
NC(=S)N/N=C/Cc1ccccc1

>  <measured on>
PC-3 prostate

>  <growth>
91.4% (inactive)

$$$$
>  <compound>
CCN(CC)c1nc(SCC(=O)Nc2nc3ccc(C)cc3s2)nc(-c2ccccc2)c1C#N

>  <measured on>
PC-3 prostate

>  <growth>
67% (inactive)

$$$$
>  <compound>
Cc1ccc(Nc2nc(N)nc(CSCC(=O)NN)n2)cc1

>  <measured on>
PC-3 prostate

>  <growth>
93% (inactive)

$$$$
>  <compound>
COc1ccc(Cl)cc1NC(=O)C(Br)C(Br)C(=O)O (stereo not given)

>  <measured on>
PC-3 prostate

>  <growth>
56.3% (inactive)

$$$$
>  <compound>
COc1ccc(Nc2nnc(SCc3ccccc3F)s2)cc1

>  <measured on>
PC-3 prostate

>  <growth>
85.6% (inactive)

$$$$
>  <compound>
CCN(CCNc1ccc(C)c2sc3ccccc3c(=O)c12)CC(C)(C)O

>  <measured on>
PC-3 prostate

>  <growth>
71.4% (inactive)

$$$$
>  <compound>
CN(C)CCC=C1c2ccccc2C(C)(C)c2ccccc21

>  <measured on>
PC-3 prostate

>  <growth>
55.5% (inactive)

$$$$
>  <compound>
COc1cc(/C=N/NC(=O)Cn2c(C(C)C)nc3ccccc32)ccc1O

>  <measured on>
PC-3 prostate

>  <growth>
94.8% (inactive)

$$$$
>  <compound>
Nc1n[nH]c(-c2cc(Cl)ccc2O)c1-c1ccccc1

>  <measured on>
PC-3 prostate

>  <growth>
81% (inactive)

$$$$
>  <compound>
CCOc1ccccc1-c1cc(-c2cccs2)c(C#N)c(=O)[nH]1

>  <measured on>
PC-3 prostate

>  <growth>
84.5% (inactive)

$$$$
>  <compound>
COCN1CCC2N(COC)CCC3N(COC)CCC1N23 (stereo not given)

>  <measured on>
PC-3 prostate

>  <growth>
102% (inactive)

$$$$
>  <compound>
C=C1C(=O)O[C@H]2[C@H]1CC/C(COC(=O)C(=O)c1c[nH]c3ccccc13)=C\CC[C@@]1(C)O[C@@H]21

>  <measured on>
PC-3 prostate

>  <growth>
-66.8% (active)

$$$$
>  <compound>
CNc1ccc(NC)c2c1C(=O)c1ccccc1C2=O

>  <measured on>
PC-3 prostate

>  <growth>
84% (inactive)

$$$$
>  <compound>
COc1ccc(-c2ccc3c(c2)sc2nc(-c4ccc(F)cc4)cn23)cc1

>  <measured on>
PC-3 prostate

>  <growth>
81.7% (inactive)

$$$$
>  <compound>
CCN(CC)CCCC(C)Nc1c2ccc(Cl)cc2nc2ccc(O)cc12 (stereo not given)

>  <measured on>
PC-3 prostate

>  <growth>
48.7% (inactive)

$$$$
>  <compound>
OC(COc1ccccc1Cl)COc1ccccc1Cl

>  <measured on>
PC-3 prostate

>  <growth>
95.9% (inactive)

$$$$
>  <compound>
Cc1c(C)c2c(c(C)c1OCC(=O)O)CC[C@@](C)(CCC[C@@H](C)CCC[C@@H](C)CCCC(C)C)O2

>  <measured on>
PC-3 prostate

>  <growth>
-16% [50 µM] (active)

$$$$
>  <compound>
Cc1ccc2nc(NC(=O)CSc3nc(Nc4ccc([N+](=O)[O-])cc4)c(C#N)c(-c4ccccc4)n3)sc2c1

>  <measured on>
PC-3 prostate

>  <growth>
93.8% (inactive)

$$$$
>  <compound>
Cc1nn(-c2ccccc2)c2nc3c(c(-c4ccc(Cl)cc4)c12)CNC1(CCSCC1)N3

>  <measured on>
PC-3 prostate

>  <growth>
87% (inactive)

$$$$
>  <compound>
Cn1c(=O)c2c(nc(Cl)n2CCl)n(C)c1=O

>  <measured on>
PC-3 prostate

>  <growth>
98.5% (inactive)

$$$$
>  <compound>
Cc1ccc(N2CCN(C(=S)c3cccs3)CC2)cc1

>  <measured on>
PC-3 prostate

>  <growth>
92.9% (inactive)

$$$$
>  <compound>
O=S(=O)(NCCCNc1cc(-c2c(-c3cccc(O)c3)nc3sccn23)ccn1)c1cccc(Cl)c1

>  <measured on>
PC-3 prostate

>  <growth>
24.6% (inactive)

$$$$
>  <compound>
NC(=O)c1ccc[n+](Cc2ccc(Cl)cc2Cl)c1

>  <measured on>
PC-3 prostate

>  <growth>
88.9% (inactive)

$$$$
>  <compound>
NC(N)=NN=C(c1ccccc1)c1ccccc1

>  <measured on>
PC-3 prostate

>  <growth>
23.8% (inactive)

$$$$
>  <compound>
Cn1c(-c2c(N)n(Cc3ccc(C(F)(F)F)cc3)c3nc(C#N)c(C#N)nc23)nc2ccccc21

>  <measured on>
PC-3 prostate

>  <growth>
-26.6% (active)

$$$$
>  <compound>
O=C1C=C[C@]2(C[C@@H](c3cccc(C(F)(F)F)c3)O[C@@H](c3cccc(C(F)(F)F)c3)O2)O1

>  <measured on>
PC-3 prostate

>  <growth>
7.18% (active)

$$$$
>  <compound>
C[C@H]1[C@H]2[C@H]3CC[C@@H]4[C@@]5(C)C/C(=C/c6ccco6)C(=O)C(C)(C)[C@@H]5CC[C@@]4(C)[C@]3(C)CC[C@]23CO[C@]1(C)[C@@H](C(=O)/C=C\c1ccco1)C3

>  <measured on>
PC-3 prostate

>  <growth>
79.7% (inactive)

$$$$
>  <compound>
N#Cc1c(N2CCNCC2)nc2sc3cc(Cl)c(Cl)cc3n2c1=N

>  <measured on>
PC-3 prostate

>  <growth>
94.2% (inactive)

$$$$
>  <compound>
COc1cc(C(=O)/C=C/c2c(C(F)(F)F)nc3sccn23)cc(OC)c1OC

>  <measured on>
PC-3 prostate

>  <growth>
16.4% (inactive)

$$$$
>  <compound>
O=C1CCC2=C3C4CCCCC4C(=O)C4CCCC(OC2C1)C34 (stereo not given)

>  <measured on>
PC-3 prostate

>  <growth>
46.7% (inactive)

$$$$
>  <compound>
N#Cc1c(-c2ccccn2)[nH]c(=S)[nH]c1=O

>  <measured on>
PC-3 prostate

>  <growth>
103% (inactive)

$$$$
>  <compound>
Cc1ccc(NS(=O)(=O)c2ccc3c(c2)C2OCCC2C(c2ccc(C(=O)C(C)C)cc2)N3)cc1C (stereo not given)

>  <measured on>
PC-3 prostate

>  <growth>
28.8% (inactive)

$$$$
>  <compound>
Nc1cc2c3c(cccc3c1)C(=O)N(CCN1CCCC1)C2=O

>  <measured on>
PC-3 prostate

>  <growth>
40.8% (inactive)

$$$$
>  <compound>
COc1cccc(C(=O)NCCCNc2cc(-c3cn(-c4ccccc4)nc3-c3cccc(OC)c3)ccn2)c1

>  <measured on>
PC-3 prostate

>  <growth>
27.4% (inactive)

$$$$
>  <compound>
COC(=O)c1ccc(CSc2nnc(-c3c(C)nc4ccc(C)cn34)o2)cc1

>  <measured on>
PC-3 prostate

>  <growth>
106% (inactive)

$$$$
>  <compound>
O=C1/C(=C/c2ccc(F)cc2)C=C(c2ccccc2)N1CCc1ccccc1

>  <measured on>
PC-3 prostate

>  <growth>
51.2% (inactive)

$$$$
>  <compound>
Cc1ccc2[nH]c(=O)c3c(c2c1)OC(N)=C(C#N)C31c2cc(Br)ccc2-c2ccc(Br)cc21

>  <measured on>
PC-3 prostate

>  <growth>
48.3% (inactive)

$$$$

====

Test system: HCT-15 colon
Assay: NCI-60 one-dose screen, 48 h
Conditions: 10 µM unless noted
This is part of a sample that, as a whole, favours compounds with a hit. Of some 83,000 tested, about 20% had one in any assay. Active and inactive are the calls of the source. How the source made its calls: active means growth percent below 10; inactive means the rest.
Outcome codes: active, inactive

>  <molecule>
CC(C)Sc1nc(NNC(N)=S)c(C#N)c(-c2ccc(F)cc2)n1

>  <class label>
inactive

$$$$
>  <molecule>
COC(=O)[C@]12CC[C@@H](C)[C@H](C)[C@@H]1C1=CC[C@@H]3[C@@]4(C)C(C=O)=C[C@@](C)(COC(C)=O)C4=CC[C@@]3(C)[C@]1(C)CC2

>  <class label>
active

$$$$
>  <molecule>
COc1ccc(-c2nc(SCC(=O)Nc3nc(-c4ccccc4)cs3)[nH]c(=O)c2C#N)cc1

>  <class label>
inactive

$$$$
>  <molecule>
CCCCCCCCCCCC(c1ccccc1)[N+](C)(C)C (stereo not drawn)

>  <class label>
inactive

$$$$
>  <molecule>
C[C@@]1(CCC#N)[C@H]2CC[C@@H]3[C@H]4[C@H](C(=O)/C=C/c5cccnc5)CC[C@]4(C#N)CC[C@@]3(C)[C@]2(C)CC[C@H]1C(=O)/C=C/c1cccnc1

>  <class label>
inactive

$$$$
>  <molecule>
COc1cccc(-c2nc3sccn3c2-c2ccnc(NCCNS(=O)(=O)c3cccc(F)c3)c2)c1

>  <class label>
inactive

$$$$
>  <molecule>
NC[C@H](O)c1ccc(O)c(O)c1

>  <class label>
inactive

$$$$
>  <molecule>
C=C(C)[C@@H]1CC[C@]2(C(=O)NC3CCCCC3)CC[C@]3(C)[C@H](CC[C@@H]4[C@@]5(C)CCC(=O)C(C)(C)[C@@H]5CC[C@]43C)[C@@H]12

>  <class label>
inactive

$$$$
